experimental-target: Bfl-1 (Homo sapiens)
Construct: lacking their C-terminal transmembrane domains (approximately last 20 amino-acids); made in house; host or cells: XL-1 Blue cells (E. coli), pGEX 4T-1
Sequence (Q16548 1-155 limits assumed): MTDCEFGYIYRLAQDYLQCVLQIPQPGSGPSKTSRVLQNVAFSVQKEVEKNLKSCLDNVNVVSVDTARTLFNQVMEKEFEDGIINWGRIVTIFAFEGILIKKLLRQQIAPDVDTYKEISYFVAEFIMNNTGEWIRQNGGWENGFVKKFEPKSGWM
test-name: Bfl-1 TR-FRET assay (FITC-Bid, Tb-anti-GST antibody)
Assay type: binding
experimental-conditions: Tables 3-5; read-out: Bfl-1 TR FRET IC50
property: IC50 (nM)
Number only, in nM; omit the unit.

Prompt: State its IC50: O=C1C(Cl)=C(N2CCN(Cc3ccccc3)CC2)C(=O)N1c1ccc(Cl)c(Cl)c1 [MLS-0090866]
Completion: 1640

Prompt: State its IC50: CCN1CCN(C2=C(Cl)C(=O)N(c3ccc(Cl)c(Cl)c3)C2=O)CC1 [MLS-0090860]
Completion: 970

Prompt: State its IC50: C[C@H]1CN(C2=C(Cl)C(=O)N(c3ccc(Cl)c(Cl)c3)C2=O)CCN1 [MLS-0090858]
Completion: 1250

Prompt: State its IC50: Cc1ccc(Cl)c(N2C(=O)C(Cl)=C(N3CCN(C)CC3)C2=O)c1Cl [MLS-0090832]
Completion: 11100
